Test: NCI Yeast Anticancer Drug Screen. Data for the mec2-1 strain (AID 157)
Conditions: S. cerevisiae mec2-1 strain, at 50.0 µM, stronger effect = higher value
About 79,000 compounds went through this panel and 15% of them were active in at least one assay; those are over-represented in the sample as a whole.
Measured attribute: growth inhibition (%)
Answer with a number only, understood to be in %.

> print(dat)
                                   compound  result
1  NP(=O)(OCCC(OCc1ccccc1)OCc1ccccc1)N(CCCl)CCCl (stereo unspecified)     9.1
2  O=C1Nc2ccccc2C12CNCS2 (stereo unspecified)    4.55
3  Cl.[O-]c1cccc2cccnc12.[O-]c1cccc2cccnc12.[O-]c1cccc2cccnc12.[O-]c1cccc2cccnc12.[Ti+4]    92.8
4  O=C1NC(=O)C2(c3ccccc3)CCN1C2=O (stereo unspecified)     4.6
5                            CC(=O)CCC(=O)O    0.55

API: the following record is the query input.
Req: # input compound: `CC1(C)COP(=S)(SCCC#N)OC1` ; wanted: its growth inhibition
Resp: -7.1

====

Experiment: NCI Yeast Anticancer Drug Screen. Data for the bub3 strain (AID 167)
Conditions: S. cerevisiae bub3 mutant strain, at 50.0 µM
This is part of a sample that, as a whole, favours compounds with a hit. Of some 79,000 tested, about 15% had one in any assay. Calls of active or inactive are those of the source. Rule as the data show it: active = growth inhibition above about 70%; inactive = the rest.
# output must be one of active, inactive

Worked examples follow.
Compound	Answer label
CC(Cc1cccc2c1Nc1ccccc1S2)N(C)CCO (stereo not given)	inactive
COc1cc([As](=O)(O)O)c(OC)cc1N	inactive
N#Cc1ccc(Cc2ccccn2)cc1Cl	inactive

Req: Status in this test for C=CCC1(O)CCC2C3CCC4=CC(=O)CCC4=C3C=CC21CC (stereo not given) ?
Resp: inactive

Req: Status in this test for `CC1(C)c2ccccc2C(c2ccccc2)(c2ccccc2)[N+]1(C)C` ?
Resp: inactive

Req: Status in this test for COc1cc2c(cc1O)CC1c3c(cc(O)c(OC)c3-2)CCN1C (stereo not given) ?
Resp: inactive

Req: Status in this test for COc1ccc(C(C#N)C(C)=O)cc1 (stereo not given) ?
Resp: inactive

Req: Status in this test for `O=[As](O)(O)Cc1ccccc1` ?
Resp: inactive

Req: Status in this test for CCC(C)C(=O)OC1CC2(C)C(c3ccoc3)OC(=O)CC23OC2(C)OC34C(OC(=O)C(C)C)C3(O)C(OC(=O)C5(C)OC5C)C5(C)CC3(O)C(C)(C5CC(=O)OC)C14O2 (stereo not given) ?
Resp: inactive

Req: Status in this test for COc1ccc(N=NC(=O)NC(CC(C)C)C(=O)NC(C)C(=O)O)cc1 (stereo not given) ?
Resp: inactive

Req: Status in this test for CCC1C2Cc3ccc(O)cc3C1(CC)CCN2C (stereo not given) ?
Resp: inactive

Req: Status in this test for `CCOC(=O)CN(Cc1ccccc1)Cc1c(C(=O)c2ccccc2)c2ccccc2n1C(=O)c1ccccc1` ?
Resp: inactive

Req: Status in this test for `CC1=C2[C@H]3OC(=O)[C@@H](C)[C@@H]3CC[C@@]2(C)C=CC1=O` ?
Resp: inactive

Req: Status in this test for CC(C)=NNC1=NC(C)(C)P(=O)(N2CCCC2C(=O)O)S1 (stereo not given) ?
Resp: inactive

Req: Status in this test for `CCN(CC)C(=S)[S][Pb]([CH2]C)([CH2]C)[CH2]C` ?
Resp: inactive

Req: Status in this test for `CC(=O)N(N=O)c1cc(Cl)ccc1Cl` ?
Resp: inactive

Req: Status in this test for CC(Cl)CN(CC(C)Cl)c1ccc2c(c1)Cc1ccccc1-2 (stereo not given) ?
Resp: inactive

Req: Status in this test for `COc1cc(/C=C(\C)[N+](=O)[O-])cc(OC)c1` ?
Resp: inactive

Req: Status in this test for CCCCCCCCCCC(O)[C@H]1CCC(C2CC[C@H]([C@H](O)CCCCCCCCCCC(O)CC3=CC(C)OC3=O)O2)O1 (stereo not given in full) ?
Resp: inactive

Req: Status in this test for `Cc1nc2ccccc2c(=O)n1-c1ccccc1Br` ?
Resp: inactive

Req: Status in this test for NC1CC(O)C(O)CC1c1ccc2c(c1)OCO2 (stereo not given) ?
Resp: inactive

Req: Status in this test for `CSc1ccc([As](=O)(O)O)cc1` ?
Resp: inactive

====

Assay: NCI Yeast Anticancer Drug Screen. Data for the mec2-1 strain (AID 157)
Conditions: S. cerevisiae mec2-1 strain, at 50.0 µM, stronger effect = higher value
Compounds without any hit were thinned out: in the full panel of roughly 79,000, 15% have a hit.
Quick reference for growth inhibition among some compounds
Answer with a number only, understood to be in %.

Answered cases to consult:
Compound	growth inhibition / %
CCOC(=O)C(C)(Br)CC (stereo not drawn)	-3.25
C=CCOCC1CO1 (stereo not drawn)	-5.1
O=C(O)C(O)CO.[Pb] (stereo not drawn)	0.35
CCOP(=S)(OCC)S/C(C(=O)NC)=C(/C)O	22.9
O=C(Nc1ccccc1F)C(Cl)(Cl)Cl	-5.2

Req: # input compound: `Oc1ccccc1C=NCCN=Cc1ccccc1O.[Zn+2]` ; wanted: its growth inhibition
Resp: -2.2

Req: # input compound: `C[N+](C)(Cc1ccccc1[N+](=O)[O-])c1ccc(N(CCCl)CCCl)cc1` ; wanted: its growth inhibition
Resp: -8.15

Req: # input compound: `C[C@]12CC[C@H]3[C@@H](CC=C4C=C(P(=O)(O)O)CC[C@@]43C)[C@@H]1CC[C@@H]2O` ; wanted: its growth inhibition
Resp: 5.2

====

Assay: NCI Yeast Anticancer Drug Screen. Data for the mlh1 rad18 strain (AID 175)
Details: S. cerevisiae mlh1 rad18 strain growth inhibition; at 50.0 µM; stronger effect = higher value
This is part of a sample that, as a whole, favours compounds with a hit. Of some 79,000 tested, about 15% had one in any assay.
Measured attribute: growth inhibition (%)
Answer with a number only, understood to be in %.

Compound	Result
COc1ccc2c(c1OC(C)=O)C1=CC(=O)CCC13CCNC3C2 (stereo unspecified)	-24.3
CS(=O)(=O)c1ccc([As](=O)(O)O)cc1	-11.8
S=P1(c2ccccc2)C=C(N2CCCC2)CC1 (stereo unspecified)	20.4
C=C[CH2][Sn]([CH2]C=C)([CH2]CCC)[CH2]CCC	99.4
COC(=O)C1C(C)N1P(=O)(OC)OC (stereo unspecified)	6.6
CN(C)NP(=O)(NN(C)C)c1ccccc1	-14.4
CCCCOC(=O)c1ccccc1C(=O)OCc1ccccc1	-5.25
Nc1nnc(N)n1N	-1.65
C=C[CH2][Sn]([Br])([c]1ccccc1)[c]1ccccc1	99.3
CCOC(=O)c1ccccc1C(=O)OCC	10.9

Req: # input compound: `O=c1c2cc(Br)cc(Br)c2nc(CCCl)n1-c1ccc(O)c([N+](=O)[O-])c1` ; wanted: its growth inhibition
Resp: -0.8

Req: # input compound: COc1ccc2c(c1OC(C)=O)-c1cc(OC(C)=O)cc3c1C(C2)N(C(=O)CN(CCCl)CCCl)CC3 (stereo unspecified) ; wanted: its growth inhibition
Resp: -6.6

Req: # input compound: NC(=O)Nc1ccc([As]=O)cc1 (stereo unspecified) ; wanted: its growth inhibition
Resp: 2.65

====

Assay: NCI Yeast Anticancer Drug Screen. Data for the mlh1 rad18 strain (AID 175)
Conditions: S. cerevisiae mlh1 rad18 strain growth inhibition; at 50.0 µM; stronger effect = higher value
The panel holds about 79,000 compounds, 15% with a hit somewhere; the sample as a whole holds those more often.
Decide using growth inhibition: a value greater than or equal to 10% is Met, a smaller one is Not met.

Worked examples follow.
> print(dat)
                                   compound  answer.label
1                     COc1cc(C=O)cc(OC)c1OC       Not met
2           O=C(O)CCCc1ccc(N(CCCl)OCCCl)cc1       Not met
3           O=C(/C=C/c1ccccc1)NCCc1cnc[nH]1           Met
4  O=C(O)C(F)(F)F.O=C(O)C(F)(F)F.[C-]#[O+].[Ru].c1ccc([PH+](c2ccccc2)c2ccccc2)cc1.c1ccc([PH+](c2ccccc2)c2ccccc2)cc1           Met
5  C1CC[N-]CC1.CC(=N\O)/C(C)=N/O.CC(=N\O)/C(C)=N/O.CCOC(=O)CC[C-]=O.[Co+2]       Not met

Req: Could you please find out whether `CN(C)P(=O)(N(C)C)N(C)C.[CH3][Sn]([CH3])([Cl])[Cl]` has growth inhibition that meets 10% or exceeds it?
Resp: Met

Req: Could you please find out whether `CN(C)C(=O)Sc1ccc(S(=O)(=O)F)cc1[N+](=O)[O-]` has growth inhibition that meets 10% or exceeds it?
Resp: Met

Req: Could you please find out whether CN1C2CCC1C(O)C(c1ccccc1)C2 (stereo not given) has growth inhibition that meets 10% or exceeds it?
Resp: Not met

Req: Could you please find out whether `Cc1cc(N(CCCl)CCCl)ccc1C1N(Cc2ccc(N(CCCl)CCCl)cc2)CCCN1Cc1ccc(N(CCCl)CCCl)cc1` has growth inhibition that meets 10% or exceeds it?
Resp: Met

Req: Could you please find out whether CC(C(=O)c1ccccc1)N(C)C (stereo not given) has growth inhibition that meets 10% or exceeds it?
Resp: Not met
